- Subject of test: HIV-1 integrase wild-type (IN1-288) (HIV-1, UniProt P12497 P12497:1148-1435)
- Test details: inhibition; first activity column (headed strand transfer); other column 0.500
- Details: G4
Attribute measured: IC50 (nM)
Quick reminder: number only, in nM, skip the unit.

Problem: Which IC50 value belongs to GTGGTGGGTGTGGTTGGT (ssDNA, PS at first and last linkages) [T30675] ?
Result: 485
